Reference for the values: patent US20030171377A1

- Test system: endogenous nuclear receptors in CV-1 cells
- ASSAY NOTES: CV-1 Native Receptors Transcription Assay (MKNRCV1), Test C
- Format: cell-based, African green monkey
- CONDITION PARAMETERS: 5 μM (stated in the cell); percent activity of BRL 49653
OUTCOME MEASURE: MKNRCV1 % BRL @ 5 μM

[[record]]
compound = "Cc1oc(-c2ccccc2)nc1CCOc1ccc(CC(C(=O)O)c2nc(-c3ccccc3)oc2C)cc1 (stereo not drawn) [drawing 261]"
result = "110 @ 5 μM % BRL"

[[record]]
compound = "Cc1cc(-c2cc(O)c(Sc3cccc(C(=O)O)c3)oc2=O)ccc1OCc1ccccc1"
result = "26 @ 5 μM % BRL"


We now examine a further compound.
Form entry - test system: endogenous nuclear receptors in CV-1 cells; read-out: MKNRCV1 % BRL @ 5 μM; compound: Cc1oc(-c2ccccc2)nc1CC#Cc1ccc(CC(C(=O)O)c2ccc(-c3ccccc3)cc2)cc1 (stereo not drawn)
86 @ 5 μM % BRL

###

We begin with a simple list: items and their reported melting point.

Solved cases below.
[[record]]
compound = "Cc1oc(-c2ccccc2)nc1CCOc1cccc2c1ccn2C(C)C(=O)O (stereo not shown) [Example 65]"
result = "157 to 159 °C"

[[record]]
compound = "Cc1oc(-c2ccccc2)nc1CCOc1ccc(C[C@@](C)(C(=O)O)n2cccc2)cc1 [Example 52]"
result = "149.5 to 150.5 °C"

[[record]]
compound = "Cc1oc(-c2ccccc2)nc1CCOc1ccc(CC(C)(C(=O)O)c2ccccc2)cc1 (stereo not shown) [Example 39]"
result = "178 to 179 °C"

[[record]]
compound = "Cc1oc(-c2ccccc2)nc1CCOc1ccc(CC(C)(C(=O)O)c2cccs2)cc1 (stereo not shown) [Example 73]"
result = "165 to 166 °C"

[[record]]
compound = "Cc1oc(-c2ccccc2)nc1CCOc1ccc(C[C@@](C)(C(=O)O)n2ccc(Br)c2)cc1 (stereo in doubt) [Example 58]"
result = "158 to 159 °C"


Would you mind telling me what melting point value was observed for Cc1oc(-c2ccccc2)nc1CCC(=O)c1ccc(C[C@@H](C(=O)O)n2cccc2)cc1 (stereo in doubt) [Example 31] ?
90 to 92 °C

Would you mind telling me what melting point value was observed for O=C(O)[C@H](Cc1ccc(/C=C/CN2CCC(c3ccccc3)CC2)cc1)n1cccc1 [Example 129d] ?
126 to 130 °C

Would you mind telling me what melting point value was observed for Cc1oc(-c2ccccc2)nc1CCOc1ccc(C[C@@H](C(=O)O)n2ccc(-c3ccccc3)c2)cc1 [Example 4] ?
146 to 147 °C

Would you mind telling me what melting point value was observed for Cc1oc(-c2ccccc2)nc1CCOc1ccc(CC(C)(C(=O)O)c2ccsc2)cc1 (stereo not shown) [Example 74] ?
165 to 166 °C

Would you mind telling me what melting point value was observed for CCc1nnc(C(Cc2ccc(OCCc3nc(-c4ccccc4)oc3C)cc2)c2ccccc2)o1 (stereo not shown) [Example 43] ?
110 °C

###

Where a name gives a salt, the structure may show the parent alone.
OUTCOME MEASURE: melting point

Solved cases below.
[[record]]
compound = "Cc1oc(-c2ccccc2)nc1CCOc1ccc(C[C@@H](C(=O)O)c2ccccc2)cc1 [Example 36]"
result = "124.1 to 125 °C"

[[record]]
compound = "Cc1oc(-c2ccccc2)nc1CCC(=O)c1ccc(CC(C(=O)O)n2cccc2)cc1 (stereo not shown) [Example 44]"
result = "90 to 92 °C"

[[record]]
compound = "Cc1oc(-c2ccccc2)nc1CCOc1ccc(CC(F)(C(=O)NS(C)(=O)=O)c2ccccc2)cc1 (stereo not shown) [Example 76]"
result = "118 to 120 °C"

[[record]]
compound = "Cc1oc(-c2ccccc2)nc1CCN(Cc1ccccc1)Cc1ccc(C[C@@H](C(=O)O)n2cccc2)cc1 (as salt: salt)"
result = "110 to 113 °C"

[[record]]
compound = "Cc1oc(-c2ccccc2)nc1CCOc1ccc(CC(C)(C)C(=O)O)cc1 [Example 40]"
result = "133 to 134 °C"

[[record]]
compound = "CC(=O)c1cccn1[C@@H](Cc1ccc(OCCc2nc(-c3ccccc3)oc2C)cc1)C(=O)O [Example 14]"
result = "110 to 112 °C"

[[record]]
compound = "Cc1oc(-c2ccccc2)nc1CCOc1ccc(C[C@@H](C(=O)O)c2cccs2)cc1 (stereo in doubt) (hydrate or solvate) [Example 32]"
result = "146 to 147 °C"

[[record]]
compound = "O=C(O)[C@H](Cc1ccc(OCCn2c(-c3ccccc3)nc3ccccc32)cc1)n1cccc1 (stereo in doubt) [Example 23]"
result = "210 to 212 °C"


Would you mind telling me what melting point value was observed for Cc1sc(-c2ccccc2)nc1CCOc1ccc(C[C@@H](C(=O)O)n2cccc2)cc1 [Example 18] ?
157 to 158 °C

Would you mind telling me what melting point value was observed for Cc1oc(-c2ccccc2)nc1CCOc1ccc(CC(C)(C)C(=O)NS(C)(=O)=O)cc1 [Example 75] ?
112 to 113 °C

Would you mind telling me what melting point value was observed for CC(=O)N(CCc1nc(-c2ccccc2)oc1C)Cc1ccc(C[C@@H](C(=O)O)n2cccc2)cc1 [Example 111] ?
82 to 87 °C

Would you mind telling me what melting point value was observed for Cc1oc(-c2ccccc2)nc1CCOc1cc(CC(C(=O)O)n2cccc2)on1 (stereo not shown) [Example 77] ?
143 to 144 °C

Would you mind telling me what melting point value was observed for Cc1cc(C(Cc2ccc(CCCc3nc(-c4ccccc4)oc3C)cc2)C(=O)O)on1 (stereo not shown) [Example 104] ?
133 to 135 °C

###

- System: endogenous nuclear receptors in CV-1 cells
- ASSAY NOTES: CV-1 Native Receptors Transcription Assay (MKNRCV1), Test C
- Format: cell-based, African green monkey
- CONDITION PARAMETERS: 5 μM (stated in the cell); percent activity of BRL 49653
OUTCOME MEASURE: MKNRCV1 % BRL @ 5 μM

Solved cases below.
[[record]]
compound = "Cc1oc(-c2ccccc2)nc1CCOc1ccc(C[C@@H](C(=O)O)n2cccc2)cc1"
outcome_measure = "MKNRCV1 % BRL @ 5 μM"
result = "83 @ 5 μM % BRL"

[[record]]
compound = "Cc1oc(-c2ccccc2)nc1CCOc1ccc([C@@H](C(=O)O)n2cccc2C(=O)c2ccccc2)cc1"
outcome_measure = "MKNRCV1 % BRL @ 5 μM"
result = "39 % BRL"


Would you mind telling me what MKNRCV1 % BRL @ 5 μM value was observed for Cc1oc(-c2ccccc2)nc1CCOc1ccc(C[C@@H](c2nnco2)n2cccc2)cc1 ?
37 @ 5 μM % BRL

Would you mind telling me what MKNRCV1 % BRL @ 5 μM value was observed for Cc1oc(-c2ccccc2)nc1CC#Cc1ccc(CC(C(=O)O)c2cccnc2)cc1 (stereo not drawn) ?
49 @ 5 μM % BRL

Would you mind telling me what MKNRCV1 % BRL @ 5 μM value was observed for Cc1oc(-c2ccccc2)nc1CCOc1ccc(CC(C(=O)O)c2ccccc2)cn1 (stereo not drawn) [drawing 309] ?
75 @ 5 μM % BRL

Would you mind telling me what MKNRCV1 % BRL @ 5 μM value was observed for Cc1oc(-c2ccccc2)nc1CC#Cc1ccc(CC(C(=O)O)c2cccc(-c3ccccc3)c2)cc1 (stereo not drawn) ?
48 @ 5 μM % BRL

Would you mind telling me what MKNRCV1 % BRL @ 5 μM value was observed for Cc1oc(-c2ccccc2)nc1CCOc1ccc([C@@H](C(=O)O)n2cccc2)cc1 ?
47 % BRL

Would you mind telling me what MKNRCV1 % BRL @ 5 μM value was observed for Cc1oc(-c2ccccc2)nc1CCOc1ccc(C[C@H](C(=O)O)n2cccc2)cc1 ?
87 @ 5 μM % BRL

Would you mind telling me what MKNRCV1 % BRL @ 5 μM value was observed for Cc1oc(-c2ccccc2)nc1CCOc1ccc(CC[C@@H](C(=O)O)n2cccc2)cc1 ?
82 @ 5 μM % BRL

###

We begin with a simple list: items and their reported melting point.

Solved cases below.
[[record]]
molecule = "Cc1oc(-c2ccccc2)nc1CCCc1ccc(CC(C(=O)O)n2cncn2)cc1 (stereo not drawn)"
result = "169 to 171 °C"

[[record]]
molecule = "Cc1oc(-c2ccccc2)nc1CCOc1ccc(CC(F)(C(=O)O)c2ccccc2)cc1 (stereo not drawn)"
result = "163 to 165 °C"

[[record]]
molecule = "CC(C(=O)O)n1ccc2c(OCc3ccccc3)cccc21 (stereo not drawn)"
result = "143 to 146 °C"

[[record]]
molecule = "O=C(O)[C@H](Cc1ccc(CCCN2CCC(c3ccccc3)CC2)cc1)n1cccc1 [Example 131c]"
result = "95 to 100 °C"

[[record]]
molecule = "Cc1oc(-c2ccccc2)nc1CCOc1ccc(C[C@@H](C(=O)O)n2cccc2C(=O)C(F)(F)F)cc1"
result = "187 to 188 °C"


We now examine a further molecule.
Would you mind telling me what melting point value was observed for Cc1oc(-c2ccccc2)nc1CCOc1ccc(CC(C(=O)O)c2nc(-c3ccccc3)oc2C)cc1 (stereo not drawn) ?
120 °C
